Listed next: entries and their corresponding pIC50.
# MEASUREMENT TARGET: human GCN2 (full length, purified; Carna Bioscience # 05-153) (Homo sapiens, UniProt Q9P2K8)
# Sequence (Q9P2K8 whole entry): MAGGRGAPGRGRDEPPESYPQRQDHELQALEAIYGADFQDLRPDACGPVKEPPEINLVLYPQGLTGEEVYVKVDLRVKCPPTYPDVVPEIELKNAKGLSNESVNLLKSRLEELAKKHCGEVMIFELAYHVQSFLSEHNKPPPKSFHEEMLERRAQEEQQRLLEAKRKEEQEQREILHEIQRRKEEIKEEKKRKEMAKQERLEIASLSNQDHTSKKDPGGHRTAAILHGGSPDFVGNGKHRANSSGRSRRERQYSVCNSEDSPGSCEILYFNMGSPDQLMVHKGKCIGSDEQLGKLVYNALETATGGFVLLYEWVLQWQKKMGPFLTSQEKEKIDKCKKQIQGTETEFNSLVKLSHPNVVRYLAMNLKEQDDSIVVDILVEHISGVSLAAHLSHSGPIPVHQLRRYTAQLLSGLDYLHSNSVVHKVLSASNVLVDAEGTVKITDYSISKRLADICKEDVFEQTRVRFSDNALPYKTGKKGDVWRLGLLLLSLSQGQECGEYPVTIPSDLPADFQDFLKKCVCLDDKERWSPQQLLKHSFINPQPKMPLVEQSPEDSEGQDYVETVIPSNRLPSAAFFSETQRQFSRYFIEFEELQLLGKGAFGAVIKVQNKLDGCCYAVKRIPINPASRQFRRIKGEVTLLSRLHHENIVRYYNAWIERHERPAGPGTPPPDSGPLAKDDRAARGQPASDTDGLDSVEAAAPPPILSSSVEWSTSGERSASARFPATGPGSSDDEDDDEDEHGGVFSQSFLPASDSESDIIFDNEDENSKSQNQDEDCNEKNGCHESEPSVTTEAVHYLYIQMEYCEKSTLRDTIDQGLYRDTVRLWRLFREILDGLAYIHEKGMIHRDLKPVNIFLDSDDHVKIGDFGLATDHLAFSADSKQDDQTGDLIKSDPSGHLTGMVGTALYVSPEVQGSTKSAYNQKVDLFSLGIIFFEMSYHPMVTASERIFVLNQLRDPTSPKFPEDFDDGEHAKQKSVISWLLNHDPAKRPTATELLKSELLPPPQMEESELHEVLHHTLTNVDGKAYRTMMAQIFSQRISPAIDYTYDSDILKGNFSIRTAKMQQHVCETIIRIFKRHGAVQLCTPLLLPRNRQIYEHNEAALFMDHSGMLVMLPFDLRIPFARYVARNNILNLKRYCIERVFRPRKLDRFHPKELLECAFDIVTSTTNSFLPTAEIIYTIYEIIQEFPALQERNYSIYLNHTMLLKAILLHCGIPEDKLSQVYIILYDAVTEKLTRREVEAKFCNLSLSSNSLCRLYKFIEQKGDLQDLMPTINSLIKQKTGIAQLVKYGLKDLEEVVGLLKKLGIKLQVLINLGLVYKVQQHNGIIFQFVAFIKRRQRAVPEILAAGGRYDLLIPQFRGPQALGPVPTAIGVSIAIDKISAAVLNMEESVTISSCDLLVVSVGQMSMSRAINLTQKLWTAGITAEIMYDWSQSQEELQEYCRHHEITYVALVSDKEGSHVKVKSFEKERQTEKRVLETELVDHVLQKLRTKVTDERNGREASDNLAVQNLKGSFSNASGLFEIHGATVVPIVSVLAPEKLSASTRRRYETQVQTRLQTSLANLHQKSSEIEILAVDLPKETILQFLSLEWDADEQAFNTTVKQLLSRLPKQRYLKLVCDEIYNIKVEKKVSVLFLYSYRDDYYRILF
# PROTOCOL DESCRIPTION: LanthaScreen TR-FRET kinase assay, GFP-eIF2alpha
pIC50: −log10 of the molar value.

# COMPOUND, pIC50
measured = [
    ("Cc1nc(N)sc1-c1csc(Nc2ncccn2)n1 [compound 20]", "< 5.52"),
    ("Cc1nn(-c2ccccc2)c2sc(C(=O)Nc3ccc(S(=O)(=O)NCc4ccco4)cc3)cc12 [compound 18]", "< 5.52"),
    ("CS(=O)(=O)c1ncc(-c2ccc(Br)cc2)cn1 [compound 21]", "< 5.52"),
]

Note: attention shifts to another entry.
Incoming: Recall and state the measured pIC50 for COc1ncc(Cl)cc1S(=O)(=O)Nc1ccc(F)c(C#Cc2cnc(N)nc2)c1F [GCN2iB] .
Outgoing: 8.81

---

# MEASUREMENT TARGET: human PKR (Carna Bioscience # 05-156) (Homo sapiens, UniProt P19525)
# Sequence (P19525 2-551): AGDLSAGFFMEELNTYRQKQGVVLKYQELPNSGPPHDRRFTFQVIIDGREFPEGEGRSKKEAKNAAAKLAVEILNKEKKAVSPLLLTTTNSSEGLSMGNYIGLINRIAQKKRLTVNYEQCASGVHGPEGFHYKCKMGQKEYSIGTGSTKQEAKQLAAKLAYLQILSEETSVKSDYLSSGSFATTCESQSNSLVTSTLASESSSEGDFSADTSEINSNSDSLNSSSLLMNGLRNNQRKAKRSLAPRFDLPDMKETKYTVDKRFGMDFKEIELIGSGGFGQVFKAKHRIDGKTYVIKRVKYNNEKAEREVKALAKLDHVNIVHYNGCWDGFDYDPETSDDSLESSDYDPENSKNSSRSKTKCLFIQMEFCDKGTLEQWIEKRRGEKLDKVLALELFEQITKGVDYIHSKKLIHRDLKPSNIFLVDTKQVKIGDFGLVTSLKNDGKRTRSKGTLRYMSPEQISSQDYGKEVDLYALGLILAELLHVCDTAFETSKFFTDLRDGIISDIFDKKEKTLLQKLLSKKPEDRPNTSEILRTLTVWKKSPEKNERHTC
pIC50: −log10 of the molar value.
QUANTITY: pIC50

# COMPOUND, MEASUREMENT TARGET, pIC50
data = [
    ("Cc1nn(-c2ccccc2)c2sc(C(=O)Nc3ccc(S(=O)(=O)NCc4ccco4)cc3)cc12 [compound 18]", "human PKR (Carna Bioscience # 05-156) (Homo sapiens, UniProt P19525)", 5.35),
    ("COc1ncc(Cl)cc1S(=O)(=O)Nc1ccc(F)c(C#Cc2cnc(N)nc2)c1F [GCN2iB]", "human PKR (Carna Bioscience # 05-156) (Homo sapiens, UniProt P19525)", 5.49),
    ("Cc1nc(N)sc1-c1csc(Nc2ncccn2)n1 [compound 20]", "human PKR (Carna Bioscience # 05-156) (Homo sapiens, UniProt P19525)", 5.43),
]

---

# MEASUREMENT TARGET: human HRI (Carna Bioscience # 05-154) (Homo sapiens)
# Sequence (Q9BQI3 whole entry): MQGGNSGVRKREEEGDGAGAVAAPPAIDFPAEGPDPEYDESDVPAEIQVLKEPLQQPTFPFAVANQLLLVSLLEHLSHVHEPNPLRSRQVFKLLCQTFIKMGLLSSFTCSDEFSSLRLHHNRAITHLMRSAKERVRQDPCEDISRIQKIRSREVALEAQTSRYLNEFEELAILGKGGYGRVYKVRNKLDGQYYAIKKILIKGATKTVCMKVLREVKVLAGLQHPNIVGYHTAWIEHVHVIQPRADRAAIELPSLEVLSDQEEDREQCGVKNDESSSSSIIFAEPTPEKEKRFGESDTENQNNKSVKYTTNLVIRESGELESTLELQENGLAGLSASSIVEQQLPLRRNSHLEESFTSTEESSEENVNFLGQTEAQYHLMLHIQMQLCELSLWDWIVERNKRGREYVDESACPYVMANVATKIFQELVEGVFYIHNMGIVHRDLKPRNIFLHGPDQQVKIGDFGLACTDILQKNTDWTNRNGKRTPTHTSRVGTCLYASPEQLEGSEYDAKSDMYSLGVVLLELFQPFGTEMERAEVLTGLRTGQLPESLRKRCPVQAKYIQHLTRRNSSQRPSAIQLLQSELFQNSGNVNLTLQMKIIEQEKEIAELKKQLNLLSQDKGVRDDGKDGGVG
QUANTITY: pIC50
Note on units: pIC50 is unitless, being -log10 of a concentration expressed in mol/L.

Incoming: Recall and state the measured pIC50 for COc1ncc(Cl)cc1S(=O)(=O)Nc1ccc(F)c(C#Cc2cnc(N)nc2)c1F .
Outgoing: 8.56
